For each record, write down the corresponding absorbance at 450 nm.
- target-of-assay: T1, dog serum albumin (dog, UniProt P49822 25-608)
- T1 construct: mature; also called dog Alb; Canine albumin
- T1 sequence (P49822 25-608): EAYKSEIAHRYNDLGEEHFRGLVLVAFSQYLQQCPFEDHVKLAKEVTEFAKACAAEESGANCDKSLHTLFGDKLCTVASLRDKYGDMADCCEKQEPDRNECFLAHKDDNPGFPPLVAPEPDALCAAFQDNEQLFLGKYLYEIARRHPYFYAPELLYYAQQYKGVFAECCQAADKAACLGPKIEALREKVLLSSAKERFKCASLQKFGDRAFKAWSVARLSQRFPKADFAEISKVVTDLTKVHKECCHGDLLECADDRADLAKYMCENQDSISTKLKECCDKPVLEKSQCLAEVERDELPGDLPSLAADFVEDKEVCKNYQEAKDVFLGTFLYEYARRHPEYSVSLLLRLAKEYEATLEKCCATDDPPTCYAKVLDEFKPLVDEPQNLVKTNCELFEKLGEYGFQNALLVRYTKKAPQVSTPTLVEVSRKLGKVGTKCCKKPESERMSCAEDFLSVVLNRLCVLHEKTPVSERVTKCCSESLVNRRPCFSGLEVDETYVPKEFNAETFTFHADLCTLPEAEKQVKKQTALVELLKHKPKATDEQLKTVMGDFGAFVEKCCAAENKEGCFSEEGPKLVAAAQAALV
- test-method-notes: ELISA, coated albumin, E. coli supernatant; note: test concentration or dose not given here

Use the examples below as a reference point.
For this binder ( SVA06 (VHH) VHH: QVQLQESGGRLVQAEDSLRLSCAASGRTFVSYDMGWFRQAPGKEREFVAAINWRGYTTDYVDSVKGRFFISRDIAKSTVYLQMNNLKPEDTAVYYCAARQMSGSSRYSPPGRVGYDFWGQGTQVTVSS ), measured absorbance at 450 nm is 1.99 A450

For this binder ( SVA02 (VHH, not shown: large carriers) VHH: QVQLQQSGGGLVQAGGSLRLSCAASGRFFSRQVMGWFRQAPGKDREFVGVISWDNGVTFYSDSVKGRFTMSREIAKKTVHLQMNSLKPEDTAVYYCAAGNALHSRYYSPSKYDYWGPGTQVTVSS ), measured absorbance at 450 nm is 1.87 A450

For this binder ( SVA16 (VHH, not shown: large carriers) VHH: QVQLQESGGGVVQAGGSLRLSCAASGRTVSSSAMGWFRLAPGKEREFVVGISRSGGSIFYADSVKGRFTISRKNAKNTVDLQMNSLKPEDTAVYYCAAGYRPGYGDYGRVFYREDEYDDWGQGTQVTVSS ), measured absorbance at 450 nm is 2.02 A450

Please look at the following binder next.
For this binder ( SVA07 (VHH, not shown: large carriers) VHH: QVQLQQSGGGLVQAGDSLRLSCAASGRAFNYYTMGWFRQAPGKEREFVAKIYWDGGSTIYADSVKGRFTISIDNAKNTVYLQMNSLKPEDTAVYYCAADPSFYPFRPKYWGQGTQVTVSS ), measured absorbance at 450 nm is 0.059 A450

The origin of these recorded values is patent US20240376185A1.
